assay protocol: qHTS for Activators of Integrin-Mediated Alleviation for Muscular Dystrophy; also: nearly all actives have a fitted effect of over 60% in size
details: alpha7betagal myoblasts, beta-gal FDG fluorescence, 48 h; series mostly up to 38.3 µM
About 220 (0.063%) of roughly 350,000 compounds were called active. Roughly 4% stayed inconclusive and do not appear here. Calls follow the shape of the dose curve; as a rule, active = well fitted activation curve with a large enough effect; inconclusive = small, poorly fitted or top-dose-only effect; inactive = no such curve, though single readings can be large or run the other way. The sample holds actives, similar compounds and a random draw of the others, so the mix is not that of the screen.
Pick from T for active, F for inactive when you respond.

C/C(=N\NC(=S)NC(C)C)c1ccc(C(C)(C)C)cc1	F
C[C@@H]1CN([C@@H](C)CO)C(=O)CCCn2nncc2CO[C@H]1CN(C)Cc1ccc(C(F)(F)F)cc1	F
COc1ccc(S(=O)(=O)N2CCC(C(=O)NCCC(=O)Nc3ccccc3OC)CC2)cc1	F
CNC(=O)C[C@H]1C(=O)N(c2ccc(OC)cc2)C[C@@H]1Cc1ccccc1	F
CCOC(=O)c1cc(-c2sc(NC(=O)c3ccccc3)nc2C)n(Cc2ccccc2)n1	F
Cc1ccc(S(=O)(=O)N(CCc2ccccc2)c2ccc3c(c2)C2CC3CCN2C(=O)OCc2ccccc2)cc1 (stereo not given)	F

**Q:** Record lookup: outcome of this test for `C[C@@H]1CN([C@@H](C)CO)C(=O)CCCn2cc(nn2)CO[C@H]1CN(C)S(=O)(=O)c1ccc(-n2cccn2)cc1` ?
**A:** F

**Q:** Test call, this compound: `CCCCCCN1C[C@@H](O)[C@H](n2cc(COC(=O)c3ccccc3)nn2)C[C@@H]1c1ccc(Cl)cc1`
**A:** F

**Q:** Hi, sorry to bother you, what did the test record for COc1ccc(OC)c(NC(=O)C2CCCN2S(=O)(=O)c2ccc3c(c2)CC(C)N3C(C)=O)c1 (stereo not given) ?
**A:** F

**Q:** Tell me the assay call for `COc1ccc(S(=O)(=O)N2CCN(CC(=O)N3CCNC3=O)CC2)cc1OC` please.
**A:** F

**Q:** Given `COc1ccc(C)cc1S(=O)(=O)Nc1cc2c3c(c1)CCC(=O)N3CCC2` , state the outcome it received in this test.
**A:** F

**Q:** Which outcome was entered for the compound `CC(C)NC(=S)NN=C1CCCCCCCCCCC1` in this test?
**A:** T

* * *

assay protocol: qHTS for Activators of Integrin-Mediated Alleviation for Muscular Dystrophy; also: nearly all actives have a fitted effect of over 60% in size
details: alpha7betagal myoblasts, beta-gal FDG fluorescence, 48 h; series mostly up to 38.3 µM
About 220 (0.063%) of roughly 350,000 compounds were called active. Not shown: some 4% with an inconclusive outcome. This is one part of a sample in which actives are shown more often than they occur.
endpoint label: outcome

NC(CSC(c1ccccc1)(c1ccccc1)c1ccc(-c2ccccc2)cc1)C(=O)O (stereo unspecified)	inactive
CC1CC(NC(=S)N(C)C)CC(C)(C)C1 (stereo unspecified)	inactive
CC(C)CC1C(=O)N(Cc2cn(Cc3ccco3)nn2)CCS(=O)(=O)N1Cc1ccc(-c2ccc(Cl)c(Cl)c2)cc1 (stereo unspecified)	inactive
COc1ccc(-c2ccc3[nH]c4c(c3c2)CCN2C[C@H]3[C@H](C)ON(C)[C@H]3C[C@@H]42)cc1	inactive

**Q:** What value of measured outcome is listed for `O=c1[nH]c2ccccc2n1C1CCN(CCOc2ccccc2)CC1` ?
**A:** inactive

**Q:** Reported outcome, molecule `COc1ccccc1-c1n[nH]nc1C1=CC(=O)CC(C)(C)C1` : ____
**A:** inactive
